Target: HLA-A24.02 (human)
Assay: competition vs radiolabeled reference peptide on purified MHC I, gel filtration
Conditions: remark: other sources report otherwise
experimental endpoint: IC50 (µM)

Solved cases (4 shown):
> print(dat)
       binder  readout.number
1  MQLMPFGCLL            23.6
2   FLPSTLKSL           0.995
3  PLYGLLLEML           0.444
4  VQLIMQLMPF            4.56

A: SLPRFILMEL
B: IMQLMPFGCL
Select the item with the higher value of IC50 from the options A and B listed. Kindly state the label of the option you pick.
B
